All values here come from the OligoGym collection.

target: CCL23; assay: pooled miR-30 sensor sort-seq; sequence = guide strand; conditions: shRNA
Classify as follows. Reported sensor-assay potency score (higher = more potent) greater than or equal to -0.5: yes. Reported sensor-assay potency score (higher = more potent) below: no.

- TGAACTTGCTTATCACTGGGGT: yes
- TCATGAACTCTGTCTCTGCATC: no
- TTTGACATCATGAACTCTGTCT: yes
- TCTCACGCAAACCTGAACTTGC: yes
- AGTAGCATGGAATCTGTCCAGA: no

## Task Does the reported sensor-assay potency score (higher = more potent) for TCTGTCTCTGCATCTTTTGTGA fall at or above the -0.5 mark?
## Result yes

## Task Does the reported sensor-assay potency score (higher = more potent) for TTGGAGCACTCGCTGTTCGTTT fall at or above the -0.5 mark?
## Result no

* * *

target: IREB2; experiment: pooled miR-30 sensor sort-seq; sequence = guide strand; settings: shRNA
Measured attribute: sensor-assay potency score (higher = more potent)

Required: sensor-assay potency score (higher = more potent), one value per sequence below.
1. TAAAGTAAGAGAAACTGGCAGA
2. TAGTATAACATGTTCTTCCTCT
3. TTCATCATCATTTACATCCATG
4. TCAACTGTAAGATCTGTCGGAC

## Result
1. -0.195
2. 0.5
3. -0.574
4. 0.203

* * *

target: COMMD8; assay: pooled miR-30 sensor sort-seq; sequence = guide strand; settings: shRNA
Please go through the items and note down their sensor-assay potency score (higher = more potent).
Give bare numbers.

Reference set (4 entries):
• TTGATTTCATCTTTCCTACTTT = -0.353
• TATTTTGTGAAGAAGCTGCGGG = 0.366
• TATTTCTCTTGACAGAGCCTGT = -1.04
• TTTCTCTTGACAGAGCCTGTTT = -0.392

Required: sensor-assay potency score (higher = more potent), one value per sequence below.
1. TATTGCTGCTTTCTCAGCCTGG
2. TTTACATCTAGATGCAGGCTTA
3. AACAGTGTGATAATCTTGGTAC

## Result
1: -0.453; 2: -0.242; 3: -0.396

* * *

biological target: PC; experiment: pooled miR-30 sensor sort-seq; sequence = guide strand; conditions: shRNA
Classify as follows. Reported sensor-assay potency score (higher = more potent) greater than or equal to -0.4: Met. Reported sensor-assay potency score (higher = more potent) below: Not met.

The examples below pair each entry with its known result.
• TAGTACTGCAGTGAGTACTTGG = Not met
• TTGACCTCCTTGAACTTGGAGC = Not met
• TTCTTGACCTCCTTGAACTTGG = Not met
• TTGATGTCTATCACCTTCCCAG = Not met
• TTGAAGACCACGTTGTCTGGGT = Met
• TTCATCTGCTTTCTGCCGGTGC = Met

## Task Does the reported sensor-assay potency score (higher = more potent) for TCTCGCAGCAGGATGTCTCTGA fall at or above the -0.4 mark?
## Result Met

## Task Does the reported sensor-assay potency score (higher = more potent) for TTCTCGTCGATGAACTGGGTGT fall at or above the -0.4 mark?
## Result Not met

* * *

molecular target: FAM154A; assay: pooled miR-30 sensor sort-seq; sequence = guide strand; settings: shRNA
Please go through the items and note down their sensor-assay potency score (higher = more potent).

Reference set (5 entries):
- TTGGCTTGAAGGACTCTCTGGG: 0.798
- TTTTATGGGGTAATCGTCCTGG: 0.26
- TTGTTTTTTGTCATTTTAGGGA: -0.361
- TTATCTCGAAACTCAGTGGTGT: 0.244
- TAATCTGAAGTGCAGGTCGGCA: -1.32

Note: attention shifts to another entry.
## Task Please give the measured sensor-assay potency score (higher = more potent) for this sequence: TTGTAGTCATCCTTGGTGGTGG
## Result 0.0888
